Tested on: RARb homodimer (NR concentration 270 nM)
EXPERIMENT: PBM binding z-score (relative to random genomic background probes); higher = stronger binding; sequences stand for … in GC…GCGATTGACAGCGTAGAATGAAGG
Assign classes using reported PBM binding z-score values and the ranges low range: < 1; mid range: ≥ 1 and < 2; high range: ≥ 2, please.

1) ATCTCTAGTTAAAAGTTCAGTGAATCCCGAGGAT	high range
2) TCATATAGGTAACCAGGTGAAAGTCCGTAAGTTA	low range
3) CCTACTGGGCCATCAGGACATTGATATCAACGTT	low range
4) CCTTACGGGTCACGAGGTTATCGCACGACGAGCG	high range
5) CCTACTGGGCCATTCAGAGGTCGTTGATCATATG	mid range

Could you place `ATCGAAAGGTCGACGAGGGGAGTATACACCGTTT` in its proper category? Many thanks.
high range
